- Test system: Ba/F3 cell line expressing EGFR L858R/T790M/C797S
- test_method_notes: Inhibitory effect on cancer cell growth (MTT), Ba/F3 L858R/T790M/C797S
- Format: cell-based, Murine
- condition_summary: Ba/F3 stable cell line, MTT, 72 hours; GI50; read-out: L858R/T790M/C797S (IC50)
readout: pIC50
Scale: pIC50 equals -log10([C]), with [C] in mol/L.

Exercise: Supply reported pIC50 belonging to this compound: COc1cc(C2CCNCC2)ccc1Nc1ncc(Cl)c(Nc2ccccc2NS(C)(=O)=O)n1 [TRE-069]
Solution: 5.40

###

- System: Ba/F3 cell line expressing EGFR L858R/T790M/C797S
- test_method_notes: Inhibitory effect on cancer cell growth (MTT), Ba/F3 L858R/T790M/C797S
- Assay type: cell-based, Murine
- condition_summary: Mus musculus, BaF3, 72 h, read-out: L858R/T790M/C797S (IC50)
readout: IC50 (µM)
API: value field is a number in µM; no unit string.

Exercise: Supply reported IC50 belonging to this compound: "COc1cc(N2CCC(N3CCN(C)CC3)CC2)ccc1Nc1ncc(Cl)c(Nc2ccccc2P(C)(C)=O)n1"
Solution: 0.86

###

Give measured IC50 for each item. Keep answers brief.
- Test system: Ba/F3 cell line expressing EGFR L858R/T790M/C797S
- test_method_notes: Inhibitory effect on cancer cell growth (MTT), Ba/F3 L858R/T790M/C797S
- Type: cell-based, Murine
- condition_summary: Mus musculus, BaF3; Ba/F3 stable cell line, MTT, 72 hours; GI50; read-out: L858R/T790M/C797S (IC50)
API: value field is a number in nM; no unit string.

Exercise: Supply reported IC50 belonging to this compound: COc1cc(N2CCC(N(C)C)CC2)ccc1Nc1ncc(Cl)c(Nc2ccccc2N(C)S(C)(=O)=O)n1 [Example 3]
Solution: 531

Exercise: Supply reported IC50 belonging to this compound: COc1cc(N2CCC(N3CCN(C)CC3)CC2)ccc1Nc1ncc(Cl)c(Nc2cc(F)ccc2N(C)S(C)(=O)=O)n1 [Example 2]
Solution: 533

Exercise: Supply reported IC50 belonging to this compound: COc1cc(N2CCC(N3CCN(C)CC3)CC2)ccc1Nc1ncc(Cl)c(Nc2ccccc2N(C)S(C)(=O)=O)n1 [Example 1]
Solution: 160
